Taken from ChEMBL document CHEMBL3120066.

# Test system: Hepatitis C virus
# assay: Antiviral activity against HCV1b infected in clone A and ET-lunet cells assessed as inhibition of viral replication after 4 days by RT-PCR analysis
# Format: functional, organism-based, Hepacivirus hominis
# measurement-conditions: genotype 1b, 96 h
Please note: EC90 exactly at 2000 nM is no (0). Only values below 2000 nM get yes (1).

Worked examples follow.
smiles-record | test-system | class-label
CC(C)C[C@H]1CN(C(=O)[C@@H]2C[C@H]2c2ccccc2)[C@@H](CC(C)C)C(=O)N1C | Hepatitis C virus | no (0)
CSC[C@H]1CN(C(=O)c2cc(-c3ccc(F)cc3)on2)[C@@H](CC(C)C)C(=O)N1 | Hepatitis C virus | yes (1)
CC[C@@H](C)[C@H]1CN(C(=O)c2cc(-c3ccc(F)cc3)on2)[C@@H](CC(C)C)C(=O)N1 | Hepatitis C virus | no (0)
CC(C)C[C@H]1C(=O)N[C@@H](c2ccc[nH]2)CN1C(=O)c1cc(-c2ccc(F)cc2)on1 | Hepatitis C virus | yes (1)
CC(C)C[C@H]1C(=O)N[C@@H](C(C)(C)C)CN1C(=O)c1cc(-c2ccc(F)cc2)on1 | Hepatitis C virus | yes (1)

Hello, I'm reviewing records and need to know if EC90 of `CC(C)C[C@H]1C(=O)N[C@@H](c2cnco2)CN1C(=O)c1cc(-c2ccc(F)cc2)on1` is below 2000 nM. Could you check?
yes (1)

# check: EC90 < 2000 nM for `CC(C)C[C@H]1CN(C(=O)/C=C/c2ccc(S(C)(=O)=O)cc2)[C@@H](CC(C)C)C(=O)N1`
no (0)

Item `CC(C)C[C@H]1CN(C(=O)c2c[nH]c(-c3ccccc3)n2)[C@@H](CC(C)C)C(=O)N1` : EC90 beneath 2000 nM, strictly?
no (0)

###

# assay: Solubility of the compound at pH 4
# Assay type: physicochemical
# measurement-conditions: buffer
endpoint-name: solubility
Please answer in the form of a number followed by its unit of measurement.

smiles-record | reported
CC(C)C[C@H]1C(=O)N[C@@H](c2cnco2)CN1C(=O)c1cc(-c2ccc(F)cc2)on1 | 147 µg/mL

The reported value for `CC(C)C[C@H]1C(=O)N[C@@H](c2cccs2)CN1C(=O)c1cc(-c2ccc(F)cc2)on1` in terms of solubility is 0.2 µg/mL

###

# assay: Cytotoxicity against human HuH7 cells after 8 days by MTS assay
# Type: cell-based, Huh-7
endpoint-name: CC50 at 192 h (µM)
Reply with just the number (in µM).

CC50 at 192 h for `CC(C)C[C@H]1CN(C(=O)[C@@H]2C[C@H]2c2ccccc2)[C@@H](CC(C)C)C(=O)N1` is 40

###

# assay: Cytotoxicity against human HepG2 cells after 8 days by MTS assay
# Type: cell-based
endpoint-name: CC50 at 192 h (µM)
Could you give me the number in µM? Just the number is fine.

Entry `CC(C)C[C@H]1CN(C(=O)[C@@H]2C[C@H]2c2ccccc2)[C@@H](CC(C)C)C(=O)N1` ; CC50 at 192 h = 40

###

# Tested on: Hepatitis C virus
# assay: Antiviral activity against HCV1b infected in clone A and ET-lunet cells assessed as inhibition of viral replication after 4 days by RT-PCR analysis
# Format: functional, organism-based, Hepacivirus hominis
# measurement-conditions: genotype 1b, 96 h
# strict inequality: EC90 < 0.5 µM yields fulfilled, everything else yields not fulfilled

smiles-record | test-system | class-label
CC(C)C[C@H]1CN(C(=O)c2cc(-c3ccc([N+](=O)[O-])cc3)on2)[C@@H](CC(C)C)C(=O)N1 | Hepatitis C virus | not fulfilled
C/C=C/[C@H]1CN(C(=O)c2cc(-c3ccc(F)cc3)on2)[C@@H](CC(C)C)C(=O)N1 | Hepatitis C virus | fulfilled

EC90 strictly < 0.5 µM for this compound? `CCCC[C@H]1CN(C(=O)c2cc(-c3ccc(F)cc3)on2)[C@@H](CC(C)C)C(=O)N1`
not fulfilled

Consider the compound `CC(C)C[C@H]1C(=O)N[C@@H](CC2CC2)CN1C(=O)c1cc(-c2ccc(F)cc2)on1` . Is its EC90 strictly less than 0.5 µM?
fulfilled

Does this compound meet the criterion EC90 < 0.5 µM? `Cc1ccc([C@H]2CN(C(=O)c3cc(-c4ccc(F)cc4)on3)[C@@H](CC(C)C)C(=O)N2)cc1`
not fulfilled

Does this compound meet the criterion EC90 < 0.5 µM? `CC(C)C[C@H]1C(=O)N[C@@H](C2CCCCC2)CN1C(=O)c1cc(-c2ccc(F)cc2)on1`
fulfilled

###

# System: Hepatitis C virus
# assay: Antiviral activity against HCV1b infected in clone A and ET-lunet cells assessed as inhibition of viral replication after 4 days by RT-PCR analysis
# Format: functional, organism-based, Hepacivirus hominis
# measurement-conditions: genotype 1b, 96 h
Define the label as 1 when EC90 is strictly less than 2 µM and as 0 in all remaining cases.

smiles-record | test-system | class-label
CC(C)C[C@@H]1CN(C(=O)[C@@H]2C[C@H]2c2ccccc2)[C@@H](CC(C)C)C(=O)N1 | Hepatitis C virus | 0

Would you kindly verify if EC90 of `Cc1ccc(/C=C/C(=O)N2C[C@H](CC(C)C)NC(=O)[C@@H]2CC(C)C)cc1` is strictly less than 2 µM?
0

###

# System: Hepatitis C virus
# assay: Antiviral activity against HCV1a infected in clone A and ET-lunet cells assessed as inhibition of viral replication after 4 days by RT-PCR analysis
# Type: functional, organism-based, Hepacivirus hominis
# measurement-conditions: subtype 1a, 96 h
endpoint-name: EC90

Completed entries (count: 3):
smiles-record | endpoint-name | reported
CC(C)C[C@H]1C(=O)N[C@@H](c2cnco2)CN1C(=O)c1cc(-c2ccc(F)cc2)on1 | EC90 | 16 nM
CC(C)C[C@H]1CN(C(=O)[C@@H]2C[C@H]2c2ccccc2)[C@@H](CC(C)C)C(=O)N1 | EC90 | 1000 nM
CC(C)C[C@H]1CN(C(=O)[C@H]2C[C@@H]2c2ccccc2)[C@@H](CC(C)C)C(=O)N1 | EC90 | > 10000 nM

For the next question, use this molecule.
Form: molecule = `CC(C)C[C@H]1C(=O)N[C@@H](c2cccs2)CN1C(=O)c1cc(-c2ccc(F)cc2)on1` ; EC90 = 22 nM

###

# assay: Half life in human liver microsomes
# Type: ADME
Mark Yes for half-life under 50 min, No if at or over.

smiles-record | class-label
CC(C)C[C@H]1C(=O)N[C@@H](C2CCCC2)CN1C(=O)c1cc(-c2ccc(F)cc2)on1 | Yes
CC(C)C[C@H]1C(=O)N[C@@H](c2cccs2)CN1C(=O)c1cc(-c2ccc(F)cc2)on1 | No
CC(C)C[C@H]1C(=O)N[C@@H](c2ccccc2)CN1C(=O)c1cc(-c2ccc(F)cc2)on1 | No

Does this compound meet the criterion half-life < 50 min? `C/C=C/[C@H]1CN(C(=O)c2cc(-c3ccc(F)cc3)on2)[C@@H](CC(C)C)C(=O)N1`
Yes

A record lists `CC(C)C[C@H]1C(=O)N[C@@H](c2cnco2)CN1C(=O)c1cc(-c2ccc(F)cc2)on1` . Is its half-life below 50 min?
Yes

###

# assay: Solubility of the compound at pH 7.4
# Format: physicochemical
# measurement-conditions: buffer
Reported solubility values for a set of compounds

smiles-record | reported
CC(C)C[C@H]1C(=O)N[C@@H](c2cccs2)CN1C(=O)c1cc(-c2ccc(F)cc2)on1 | 0.2 µg/mL

Next compound, solubility to be filled in.
// sample `CC(C)C[C@H]1C(=O)N[C@@H](c2cnco2)CN1C(=O)c1cc(-c2ccc(F)cc2)on1` , its solubility was 151 µg/mL

###

# System: Hepatitis C virus
# assay: Antiviral activity against HCV1b infected in clone A and ET-lunet cells assessed as inhibition of viral replication after 4 days by RT-PCR analysis
# Format: functional, organism-based, Hepacivirus hominis
# measurement-conditions: genotype 1b, 96 h
endpoint-name: EC90 (nM)
Answer in nM, number only, no unit symbol.

Known results for compounds:
smiles-record | endpoint-name | reported
CC(C)C[C@H]1C(=O)N[C@@H](C2CCC2)CN1C(=O)c1cc(-c2ccc(F)cc2)on1 | EC90 | 690
CC[C@H]1CN(C(=O)c2cc(-c3ccc(F)cc3)on2)[C@@H](CC(C)C)C(=O)N1 | EC90 | 710
CC(C)C[C@H]1CN(C(=O)/C=C/c2ccc(F)c(F)c2)[C@@H](CC(C)C)C(=O)N1 | EC90 | 1500

Record summary for `CC(C)C[C@H]1C(=O)N[C@@H](CC(C(F)(F)F)C(F)(F)F)CN1C(=O)c1cc(-c2ccc(F)cc2)on1` : reported EC90 = 7250

The compound identified as `CC(C)C[C@H]1CN(C(=O)c2cc(-c3ccc(F)c(F)c3)on2)[C@@H](CC(C)C)C(=O)N1` registered its EC90 at 650

Form field EC90, entry `CC(C)C[C@H]1CN(C(=O)c2cc(-c3ccc(F)cc3)on2)[C@@H](CC(C)C)C(=O)N1` : 130

The value of EC90 measured for the compound `CC(C)C[C@H]1C(=O)N[C@@H](CC(C)(C)C)CN1C(=O)c1cc(-c2ccc(F)cc2)on1` turned out to be 2000

Field EC90 (entry `CC(C)C[C@H]1C(=O)N[C@@H](c2cccs2)CN1C(=O)c1cc(-c2ccc(F)cc2)on1` ) reads 6

The reported EC90 of the compound `CSCC[C@H]1CN(C(=O)c2cc(-c3ccc(F)cc3)on2)[C@@H](CC(C)C)C(=O)N1` was 390
